B1: tRNA (parent)
chain: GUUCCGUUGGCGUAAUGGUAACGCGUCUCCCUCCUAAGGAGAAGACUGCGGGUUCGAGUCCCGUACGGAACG

variants of: B1; assay: yeast fitness relative to wild type (ratio to wild type); higher = fitter; tRNA-Arg(CCU), competitive growth, 37 C, YPD
Variants at the floor of the assay were thinned out.
readout-name: yeast fitness

Value of yeast fitness reported for the variant A45U C62U G63C is ≤ 0.5

Value of yeast fitness reported for the variant C22G G41C A65U is ≤ 0.5

Value of yeast fitness reported for the variant A21U A37G G50C G56C is ≤ 0.5
